assay: Saturation mutagenesis of SEQ ID NO:109: dicamba decarboxylation activity of point mutants (CO2 released), fold of backbone (Tables 7, 8, Megatable 1); details: decarboxylation activity (CO2 released) of point mutant vs unmutated backbone protein; backbone SEQ ID NO: 109
Field: Fold Activity. Provide a value for each of the molecules that follow.
Answer in fold, number only, no unit symbol.

Exercise: # get_value(readout='Fold Activity', item= 23 (protein, listed as Aplysina aerophoba) MAIDIDARSQPGLETARRAMSRRDFLGGAAAFGITAAATTALPASTAAGEEEDLFLLGLEEHFATAELRRLNGIQFPQGTPRFDINDVGAGRIADMDAAGIDIQVLSALTPGAQNLPGAEGVAYARRLNSWVAHEVIPAYPGRFRAFATLPLSEPQAAADELEYAVRELGFLGCMTYGAVDGKFLDHADFVPVLARAETLDVPIYIHPNWASPQVMDTYYNGLGNEWVSRVLSGAGYGWHQEVALQCLRMIASGVFDRFPRLQIIVGHMGEGLPFFYWRFGDDLARITADTLEKPVQQYFHDNFWITTSAFFRDELLRLVLSVMGEDRVMFAVDYPFVSNKVGADWFRAVDLPRNVKEKIAHKNAERLLKIGPF )
Solution: 1.5

Exercise: Now consider 94 (protein, listed as Bacillus thuringiensis) MANRGDSNMKSLVGVIMGSTSDWETMKYACDILDELNIPYEKKVVSAHRTPDYMFEYAETARERGLKVIIAGAGGAAHLPGMVAAKTNLPVIGVPVQSKALNGLDSLLSIVQMPGGVPVATVAIGKAGSTNAGLLAAQILGSFHDDIHDALELRREAIEKDVREGSELV and answer again.
Solution: 1.5

Exercise: Now consider 56 (protein, Enterobacter aerogenes) MAKIICLEEHYLDSELGRACMPVALEQAPFLGDWGKTVADGHNPDRSRPQIEKNALINAKGADLGSRRLRDMDEAGITLQILSVGGFPQLAPEDEAVTLNTAANDRLAEAVRNHPDRFAAFATLPWAQPKDAENELVRAVEKLGFKGALLNGRPSSCFLDHPDYDSLLSRFNKLNVPLYLHPGLPLKSVQQAYFTGFSAEVNARLSMFGWGWHHEAGIHLLRLMLSGAFDKYPNMQVISGHWGEMLPFWLQRLDDSLPLAATGLSRTLTRTFQEHVYVTPSGMLTLPHFKFIYELMGAERILFSVDYPYQTLDGVKTFIDSLPVNKAEKEAIAFRNAERLLGITA and answer again.
Solution: 1.3

Exercise: Now consider 73 (protein, listed as Sphaerobacter thermophilus) MARIDAHAHAQPPEYLDALLASGRYESVRDAEGRIVVRERGSRFLTITPQMHHPEQRVAEMDEAGIDMQILSVTTPQVYFLQGQAAVDLARRCNDYLADIVRSYPTRFRALASVPLTADPDAAVREFVRCLDDLGMVGAIIGSNIDGRPIDDPAFDAFYAEADRRATTLFIHPMVPAGIEVMNPYALAPLVGFMFDTTLAVSRLIFSGFFERYPRVKVLVGHLGAAVPYLAGRLDIGWRSYSDCQGIPHPPTEYIRRLYLDTVSFHAPALRCALETVGPDRIVFGSDYPHVIGDVGGAIASIQQALPATTHDGVLGHTAAELFGVSA and answer again.
Solution: 1.2
